- SYSTEM: human KDR on cells (human, UniProt P35968 20-1356)
- Sequence (P35968 20-1356): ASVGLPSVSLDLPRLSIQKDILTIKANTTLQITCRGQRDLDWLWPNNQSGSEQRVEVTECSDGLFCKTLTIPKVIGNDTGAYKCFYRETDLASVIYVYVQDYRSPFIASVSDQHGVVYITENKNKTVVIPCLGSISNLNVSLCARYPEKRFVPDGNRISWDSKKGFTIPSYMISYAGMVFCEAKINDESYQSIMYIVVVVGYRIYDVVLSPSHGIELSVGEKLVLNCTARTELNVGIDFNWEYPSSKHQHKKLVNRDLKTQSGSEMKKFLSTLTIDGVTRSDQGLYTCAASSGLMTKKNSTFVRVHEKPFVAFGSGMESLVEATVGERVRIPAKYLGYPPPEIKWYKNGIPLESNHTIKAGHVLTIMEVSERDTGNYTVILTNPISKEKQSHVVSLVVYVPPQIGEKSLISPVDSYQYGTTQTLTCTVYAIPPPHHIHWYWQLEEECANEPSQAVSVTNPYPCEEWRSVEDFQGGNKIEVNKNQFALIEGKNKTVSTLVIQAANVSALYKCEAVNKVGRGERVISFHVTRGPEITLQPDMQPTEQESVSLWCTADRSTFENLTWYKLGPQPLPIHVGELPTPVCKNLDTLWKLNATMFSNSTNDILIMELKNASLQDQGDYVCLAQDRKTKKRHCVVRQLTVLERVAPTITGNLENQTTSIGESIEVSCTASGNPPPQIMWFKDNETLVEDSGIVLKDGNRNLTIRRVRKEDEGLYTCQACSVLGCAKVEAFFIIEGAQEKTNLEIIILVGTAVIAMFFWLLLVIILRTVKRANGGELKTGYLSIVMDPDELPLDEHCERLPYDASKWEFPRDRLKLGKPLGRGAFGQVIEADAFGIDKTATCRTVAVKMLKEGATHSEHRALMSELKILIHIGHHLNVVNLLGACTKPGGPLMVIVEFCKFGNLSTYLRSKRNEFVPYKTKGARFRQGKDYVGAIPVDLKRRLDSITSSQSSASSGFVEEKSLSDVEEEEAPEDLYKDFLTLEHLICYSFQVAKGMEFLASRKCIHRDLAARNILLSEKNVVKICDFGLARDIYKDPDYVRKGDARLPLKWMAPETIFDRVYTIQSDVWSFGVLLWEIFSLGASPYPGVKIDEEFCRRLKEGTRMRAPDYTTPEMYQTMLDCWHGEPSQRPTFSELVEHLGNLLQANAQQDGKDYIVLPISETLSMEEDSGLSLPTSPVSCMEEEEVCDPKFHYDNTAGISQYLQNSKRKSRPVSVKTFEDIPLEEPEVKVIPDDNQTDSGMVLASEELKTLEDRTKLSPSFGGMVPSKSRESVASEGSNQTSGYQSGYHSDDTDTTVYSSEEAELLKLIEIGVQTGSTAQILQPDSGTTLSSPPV
- EXPERIMENT: cell-based or functional assay
Please provide measured % Inhibition (N = 2) of VEGF-C-mediated KDR activity, antibody 100 nM for the entries that follow.
Numbers only; they are read as %.

**Q:** Look at this binder and give its reported % Inhibition (N = 2) of VEGF-C-mediated KDR activity, antibody 100 nM. 27A3 (antibody, V domains shown) VH: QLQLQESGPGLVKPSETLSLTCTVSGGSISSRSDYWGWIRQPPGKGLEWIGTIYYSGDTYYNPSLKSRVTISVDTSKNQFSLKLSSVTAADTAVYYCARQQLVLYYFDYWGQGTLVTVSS VL: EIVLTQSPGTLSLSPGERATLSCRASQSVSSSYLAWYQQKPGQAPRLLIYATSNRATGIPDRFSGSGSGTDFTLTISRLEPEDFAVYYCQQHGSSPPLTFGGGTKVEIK
**A:** 77

**Q:** Moving on to the next binder: 24B3 (antibody, V domains shown, Purified fully human monoclonal antibody from XenoMouse hybridoma (IgG2 or IgG4 strains); also called MAb 24B3) VH: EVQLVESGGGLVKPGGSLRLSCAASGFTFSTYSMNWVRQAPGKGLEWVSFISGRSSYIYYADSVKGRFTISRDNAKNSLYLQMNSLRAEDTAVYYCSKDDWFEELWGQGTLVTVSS VL: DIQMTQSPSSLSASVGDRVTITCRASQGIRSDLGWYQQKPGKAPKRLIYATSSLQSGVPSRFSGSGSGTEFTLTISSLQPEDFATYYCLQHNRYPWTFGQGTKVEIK
**A:** 75

**Q:** Moving on to the next binder: 33B1 (antibody, V domains shown) VH: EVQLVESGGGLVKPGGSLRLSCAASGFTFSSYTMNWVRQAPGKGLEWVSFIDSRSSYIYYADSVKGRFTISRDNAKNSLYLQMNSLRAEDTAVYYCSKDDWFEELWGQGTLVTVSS VL: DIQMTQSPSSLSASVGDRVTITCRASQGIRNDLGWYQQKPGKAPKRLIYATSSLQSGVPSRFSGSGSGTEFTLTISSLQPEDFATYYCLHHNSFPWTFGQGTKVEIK
**A:** 73
